Reported pIC50 by item:
test system: MCF7; experiment: Cytotoxicity against human MCF7 cells assessed as reduction in cell viability using compound addition to cell culture cells in log phase of growth and incubated for 48 hrs by MTT assay; type: functional, cell-based; settings: Homo sapiens, MCF7, 48 h; read-out: IC50
pIC50: −log10 of the molar value.
Readout label: pIC50

- Structure smiles string: "CCCCCCCC(=O)OCC1=C(C)C[C@H]([C@@H](C)[C@H]2CC[C@H]3[C@@H]4C[C@H]5O[C@]56[C@@H](OC(=O)CCCCCCC)C=CC(=O)[C@]6(C)[C@H]4CC[C@]23C)OC1=O"
  Cmp: "="
  Observed value: 4.47
- Structure smiles string: "CNc1ccccc1C(=O)OCC1=C(C)C[C@H]([C@@H](C)[C@H]2CC[C@H]3[C@@H]4C[C@H]5O[C@]56[C@@H](O)C=CC(=O)[C@]6(C)[C@H]4CC[C@]23C)OC1=O"
  Cmp: "="
  Observed value: 6.00
- Structure smiles string: "CC1=C(CO)C(=O)O[C@@H]([C@@H](C)[C@H]2CC[C@H]3[C@@H]4C[C@@H](O)[C@]5(C=O)C=CC(=O)[C@]5(C)[C@H]4CC[C@]23C)C1"
  Cmp: "<"
  Observed value: 4.40
- Structure smiles string: "CC(=O)OCC1=C(C)C[C@H]([C@@H](C)[C@H]2CC[C@H]3[C@@H]4C[C@H]5O[C@]56[C@@H](O)C=CC(=O)[C@]6(C)[C@H]4CC[C@]23C)OC1=O"
  Cmp: "="
  Observed value: 5.34
- Structure smiles string: "C[C@@H]([C@H]1CC[C@H]2[C@@H]3C[C@H]4O[C@]45[C@@H](O)[C@H]4O[C@H]4C(=O)[C@]5(C)[C@H]3CC[C@]12C)[C@H]1C[C@@]2(C)O[C@@]2(CO)C(=O)O1"
  Cmp: "<"
  Observed value: 4.40
